Listed next: entries and their corresponding pKi.
Target: Histamine H2 receptor (Cavia porcellus, UniProt P47747)
Sequence (P47747 whole entry): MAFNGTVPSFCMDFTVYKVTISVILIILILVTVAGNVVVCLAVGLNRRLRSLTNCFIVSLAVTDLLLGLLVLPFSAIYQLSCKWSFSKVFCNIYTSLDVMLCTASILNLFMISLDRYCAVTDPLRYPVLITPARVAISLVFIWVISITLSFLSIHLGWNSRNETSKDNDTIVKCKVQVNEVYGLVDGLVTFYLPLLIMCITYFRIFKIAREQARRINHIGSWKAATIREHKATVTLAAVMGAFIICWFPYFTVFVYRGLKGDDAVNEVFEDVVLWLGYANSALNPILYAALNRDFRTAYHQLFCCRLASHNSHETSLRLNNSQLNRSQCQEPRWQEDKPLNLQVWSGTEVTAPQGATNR
Assay: Inhibition of [125I]APT binding to histamine H2 receptor in guinea pig cerebral membranes.
Type: cell membranes
pKi: −log10 of the molar value.

| molecule | pKi |
| --- | --- |
| CNC(=C[N+](=O)[O-])NCCSCc1ccc(CN(C)C)o1 [RANITIDINE] | 7.27 |
| N#CN=C(NCCCOc1cccc(CN2CCCCC2)c1)NCCNC(=O)c1ccc(N)c(I)c1 | 9.15 |
